ASSAY TARGET: insulin receptor on mouse adipocytes (mouse, UniProt P15208 28-1372)
Sequence (P15208 28-1372): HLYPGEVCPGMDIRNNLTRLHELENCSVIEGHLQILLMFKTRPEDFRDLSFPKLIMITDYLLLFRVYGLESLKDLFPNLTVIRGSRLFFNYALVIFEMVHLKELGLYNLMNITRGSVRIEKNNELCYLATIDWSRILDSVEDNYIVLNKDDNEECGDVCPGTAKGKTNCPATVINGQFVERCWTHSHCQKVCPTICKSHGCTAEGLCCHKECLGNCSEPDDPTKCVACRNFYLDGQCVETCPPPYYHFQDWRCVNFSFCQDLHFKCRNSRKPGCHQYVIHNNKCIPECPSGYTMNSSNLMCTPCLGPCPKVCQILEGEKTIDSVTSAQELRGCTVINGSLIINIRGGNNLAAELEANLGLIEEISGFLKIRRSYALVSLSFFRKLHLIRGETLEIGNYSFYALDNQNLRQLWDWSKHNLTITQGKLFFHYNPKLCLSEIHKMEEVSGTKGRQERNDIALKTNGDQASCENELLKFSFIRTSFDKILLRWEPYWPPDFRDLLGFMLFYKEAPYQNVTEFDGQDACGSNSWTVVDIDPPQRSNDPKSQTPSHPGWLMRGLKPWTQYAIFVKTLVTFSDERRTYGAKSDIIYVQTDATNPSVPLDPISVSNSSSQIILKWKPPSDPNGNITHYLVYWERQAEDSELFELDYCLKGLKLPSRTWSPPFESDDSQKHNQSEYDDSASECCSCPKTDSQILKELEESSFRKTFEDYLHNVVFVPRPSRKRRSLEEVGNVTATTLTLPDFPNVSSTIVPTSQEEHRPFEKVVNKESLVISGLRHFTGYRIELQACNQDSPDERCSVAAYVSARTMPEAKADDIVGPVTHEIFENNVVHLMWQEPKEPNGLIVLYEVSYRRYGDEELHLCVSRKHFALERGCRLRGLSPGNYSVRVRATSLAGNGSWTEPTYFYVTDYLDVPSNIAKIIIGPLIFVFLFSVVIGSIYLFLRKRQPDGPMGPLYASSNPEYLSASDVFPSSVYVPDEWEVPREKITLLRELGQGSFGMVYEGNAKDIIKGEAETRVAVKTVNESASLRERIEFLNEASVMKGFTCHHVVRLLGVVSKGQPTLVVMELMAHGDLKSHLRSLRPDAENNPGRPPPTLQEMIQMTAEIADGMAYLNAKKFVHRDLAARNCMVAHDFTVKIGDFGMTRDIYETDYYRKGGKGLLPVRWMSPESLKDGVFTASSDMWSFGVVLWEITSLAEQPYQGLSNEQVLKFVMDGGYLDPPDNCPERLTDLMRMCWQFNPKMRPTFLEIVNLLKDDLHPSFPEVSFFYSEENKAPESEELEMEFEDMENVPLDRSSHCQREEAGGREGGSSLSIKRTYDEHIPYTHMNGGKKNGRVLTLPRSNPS
MEASUREMENT PROTOCOL: cell-based or functional assay
Ends that are not written are not given here.
Please go through the items and note down their EC50 (FFC) rel. to HI.
Numbers only, in %.

The binder SLEEHWHQVECEVYGRGCPSESFYDWFERQL [697] showed EC50 (FFC) rel. to HI equal to 0.1

The binder Ac-SLEEEWAQIQCEVWGRGCPSESFYGWFERQL (cysteine pairing not given here) [S667] showed EC50 (FFC) rel. to HI equal to 31

The binder SLEEEWAQIECEVYGRGCPSVRGFQGGTVWPGYEWLRNAAKK [S626] showed EC50 (FFC) rel. to HI equal to 0.4

The binder HELEEEWKRIECELWGRGCPSEDFYDWFEAQLHA [618] showed EC50 (FFC) rel. to HI equal to 1

The binder Ac-SLEEEWAQIECEVWGRGCPSEGFYNAIELLS (cysteine pairing not given here) [S726] showed EC50 (FFC) rel. to HI equal to 0.3

Kindly give each listed record's EC50 (FFC) rel. to HI.
1. SLEEEWYQVECEVYGRGCPSESFYDWFERQL [691]
2. SLEEHWAQVECEVYGRGCPSESFYDWFERQL [680]
3. SLEEEWAQVECEVYGRCPSESFYDWFERQL [682]

Out:
0.3
0.4
0.8

Kindly give each listed record's EC50 (FFC) rel. to HI.
1. SLEEEWAQVECEVYGRFCPSESFYDWFERQL [694]
2. Ac-SLEEEWAQIECEVYGRGCPSESFYHWFERQL (cysteine pairing not given here) [S665]
3. Ac-SLEEEWAQIQCEVWGRGCQRPEPFYDWFERQL (cysteine pairing not given here) [S642]
4. HQLEEEWQAIQCELWGRGCPSEDFYDWFEAQLHA [616]

Out:
1: 0.3; 2: 3.4; 3: 39; 4: 4
